// data source = patent US20250019427A1

# testedOn: T1, Human GDF15 Fc (human) (UniProt Q99988)
# T1 sequence (chain, biotinylated (EZ-Link Sulfo-NHS-Biotinylation Kit) where printed as biotinylated): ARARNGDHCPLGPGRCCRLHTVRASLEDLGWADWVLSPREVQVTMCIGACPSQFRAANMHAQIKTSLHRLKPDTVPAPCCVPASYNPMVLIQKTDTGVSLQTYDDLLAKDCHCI
# assaySummary: SPR Biacore, Fab monovalent
Entries and their Kd
# unit: pM | format: bare number

Clone S Fab (Fab, V domains shown) VH: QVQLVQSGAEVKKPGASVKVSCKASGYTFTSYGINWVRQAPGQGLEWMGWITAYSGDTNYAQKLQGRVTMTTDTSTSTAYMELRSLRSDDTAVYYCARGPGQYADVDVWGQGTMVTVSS VL: DIQLTQSPSSVSASVGDRVTITCRASQGISPWLAWYQQKPGKAPKLLIYAASSLQSGVPSRFSGSGSGTDFTLTISSLQPEDFATYYCQQANSFPITFGGGTKVEIK :: 36.9

Look at this binder and give its reported Kd. Clone O Fab (Fab, V domains shown) VH: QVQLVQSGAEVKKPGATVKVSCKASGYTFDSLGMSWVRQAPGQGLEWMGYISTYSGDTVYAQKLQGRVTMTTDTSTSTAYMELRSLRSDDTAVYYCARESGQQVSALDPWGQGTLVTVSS VL: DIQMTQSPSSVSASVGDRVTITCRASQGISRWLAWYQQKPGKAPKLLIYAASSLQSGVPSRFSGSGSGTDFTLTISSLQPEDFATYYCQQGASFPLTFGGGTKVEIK
34.1

Look at this binder and give its reported Kd. Clone T Fab (Fab, V domains shown) VH: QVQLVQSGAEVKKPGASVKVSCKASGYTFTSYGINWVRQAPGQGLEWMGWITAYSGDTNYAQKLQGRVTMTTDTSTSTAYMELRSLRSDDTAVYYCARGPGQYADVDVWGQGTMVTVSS VL: DIQMTQSPSSVSASVGDRVTITCRASQGISSWLAWYQQKPGKAPKLLIYAASSLQSGVPSRFSGSGSGTDFTLTISSLQPEDFATYYCQQASQFPITFGGGTKVEIK
41.1
